All figures here come from ChEMBL document CHEMBL3632620.

- Test system: Escherichia coli
- Experiment summary: Antibacterial activity against Escherichia coli ATCC 8739 assessed as growth inhibition at 25 ug/ml after 8 to 24 hrs by agar well diffusion method
- Type: functional
- Particulars: read-out: DIZ
Parameter measured: zone of inhibition at 25 µg/mL (mm)
Give the number; mm is assumed, so skip it.

Solved entries:
CCOC(=O)C1(C)C(C)NC(=O)N(C)C1c1ccc(OC)cc1 (stereo unspecified); 13
CN[C@@H]1[C@H](O[C@H]2[C@H](O[C@H]3[C@H](O)[C@@H](O)[C@H](N=C(N)N)[C@@H](O)[C@@H]3N=C(N)N)O[C@@H](C)[C@]2(O)C=O)O[C@@H](CO)[C@H](O)[C@H]1O [STREPTOMYCIN]; 14
CCOC(=O)C1(C)C(C)NC(=S)N(C)C1c1ccccc1 (stereo unspecified); 14
CCOC(=O)C1(C)C(C)NC(=O)N(C)C1c1ccc(N(C)C)cc1 (stereo unspecified); 10
CCOC(=O)C1(C)C(C)NC(=O)N(C)C1c1ccc(O)cc1 (stereo unspecified); 8

Under Escherichia coli, report zone of inhibition at 25 µg/mL for O=C(N[C@H](CO)[C@H](O)c1ccc([N+](=O)[O-])cc1)C(Cl)Cl [CHLORAMPHENICOL]
20
